Provenance of the data: BindingDB's records for doi:10.1021/jm000911j

- testedTarget: Acyl carrier protein,/NADH dehydrogenase [ubiquinone] flavoprotein 1, mitochondrial (Bos taurus, UniProt P25708+P52505)
- Sequence (P25708 21-464 limits assumed, other chains not shown): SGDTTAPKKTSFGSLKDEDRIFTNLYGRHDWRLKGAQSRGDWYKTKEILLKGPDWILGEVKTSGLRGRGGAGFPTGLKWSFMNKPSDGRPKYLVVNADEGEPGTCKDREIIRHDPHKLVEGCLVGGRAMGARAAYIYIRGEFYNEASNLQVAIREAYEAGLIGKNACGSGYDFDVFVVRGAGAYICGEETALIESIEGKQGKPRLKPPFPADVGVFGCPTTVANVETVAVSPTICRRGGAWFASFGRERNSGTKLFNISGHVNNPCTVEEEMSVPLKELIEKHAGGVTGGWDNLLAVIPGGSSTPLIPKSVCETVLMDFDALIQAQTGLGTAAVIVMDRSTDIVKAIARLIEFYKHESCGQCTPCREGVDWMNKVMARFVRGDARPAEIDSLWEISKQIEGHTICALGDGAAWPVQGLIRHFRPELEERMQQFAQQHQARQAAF
- assayExplanation: Inhibition of NADH oxidase activity.
readoutName: IC50 (pM)
Give bare numbers, in pM.

{"compound": "CCCCCCCCCCC(N=O)[C@H]1CC[C@@H]([C@@H]2CC[C@H]([C@H](O)CCCCCCCCCCC(CC3=C[C@H](C)OC3=O)N=O)O2)O1 (some centres not stated)", "measurement": 340}

Now consider a different compound.
*Q* Data request, read-out IC50, for CCCCCCCCCC[C@H](O)[C@H]1CC[C@H]([C@H]2CC[C@H]([C@H](O)CCCCC(CCCCCCCC3=C[C@H](C)OC3=O)N=O)O2)O1 (some centres not stated)
*A* 340
